assay: LYSA solubility study; format: physicochemical; conditions: phosphate buffer, pH 6.5, aqueous buffer, thermodynamic from solid, 0.05M phosphate buffer pH 6.5, read-out: LYSA of Active Forms
property.label: solubility thermodynamic (µg/mL)

Sample answers from the record:
{"compound": "CC[S@@](=N)(=O)c1nc(N)c2[nH]c(=O)n(Cc3ccc(Cl)cc3)c2n1 (single isomer, unassigned) [Compound 41c-B]", "reading.unit": "µg/mL", "solubility thermodynamic": 5}
{"compound": "CC[S@@](=N)(=O)c1nc(N)c2[nH]c(=O)n(Cc3ccc(C)cc3)c2n1 (single isomer, unassigned) [Compound 43e-A]", "reading.unit": "µg/mL", "solubility thermodynamic": 13}

(P) CC[S@](=N)(=O)c1nc(N)c2[nH]c(=O)n(Cc3ccc(Cl)cc3)c2n1 (single isomer, unassigned) [Compound 41c-A]
(Q) CC[S@](=N)(=O)c1nc(N)c2[nH]c(=O)n(Cc3ccc(C)cc3)c2n1 (single isomer, unassigned) [Compound 43e-B]
Given P and given Q , which shows the smaller recorded solubility thermodynamic? Write the label of whichever entry you select. P
(P: 1 µg/mL, Q: 13 µg/mL)

====

Target: human TLR7 (Homo sapiens)
Sequence (Q9NYK1 27-1049): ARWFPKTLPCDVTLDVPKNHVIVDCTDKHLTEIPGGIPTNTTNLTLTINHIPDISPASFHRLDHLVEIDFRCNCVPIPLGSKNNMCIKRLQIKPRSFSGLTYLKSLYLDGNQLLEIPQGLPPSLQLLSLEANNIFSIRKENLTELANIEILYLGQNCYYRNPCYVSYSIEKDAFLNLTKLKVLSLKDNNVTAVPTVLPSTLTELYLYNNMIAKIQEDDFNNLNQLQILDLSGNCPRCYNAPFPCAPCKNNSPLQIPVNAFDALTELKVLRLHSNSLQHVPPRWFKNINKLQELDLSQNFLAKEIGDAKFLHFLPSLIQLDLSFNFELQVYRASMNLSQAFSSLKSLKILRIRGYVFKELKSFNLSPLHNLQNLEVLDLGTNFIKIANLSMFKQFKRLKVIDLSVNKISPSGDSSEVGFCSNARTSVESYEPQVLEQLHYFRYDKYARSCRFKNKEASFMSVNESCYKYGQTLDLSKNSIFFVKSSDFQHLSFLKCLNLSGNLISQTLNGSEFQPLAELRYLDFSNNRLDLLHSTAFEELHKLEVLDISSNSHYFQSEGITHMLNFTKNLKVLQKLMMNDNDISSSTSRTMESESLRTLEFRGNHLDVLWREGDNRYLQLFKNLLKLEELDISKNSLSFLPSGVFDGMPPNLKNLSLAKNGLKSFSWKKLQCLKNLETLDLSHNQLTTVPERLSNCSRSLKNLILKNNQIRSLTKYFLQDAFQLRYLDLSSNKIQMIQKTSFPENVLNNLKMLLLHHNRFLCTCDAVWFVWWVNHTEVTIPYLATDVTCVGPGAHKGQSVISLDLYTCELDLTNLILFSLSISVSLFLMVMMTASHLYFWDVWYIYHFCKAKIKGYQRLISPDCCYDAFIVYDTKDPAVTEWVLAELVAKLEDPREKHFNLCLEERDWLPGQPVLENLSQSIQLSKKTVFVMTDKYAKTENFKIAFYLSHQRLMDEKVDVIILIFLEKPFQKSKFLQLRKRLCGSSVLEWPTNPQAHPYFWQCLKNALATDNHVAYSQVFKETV
Assay: HEK293-Blue-hTLR-7 cells assay (SEAP reporter)
Assay type: cell-based
Conditions: HEK293-Blue-hTLR-7 cells, SEAP reporter, 20 hrs; active form; read-out: HEK293-hTLR-7 EC50 (Active form)
property.label: EC50 (µM)

Sample answers from the record:
{"molecule": "CCCS(=N)(=O)c1nc(N)c2[nH]c(=O)n(Cc3ccccc3)c2n1 (single isomer, unassigned) [Compound 1e-B]", "system.under.test": "human TLR7 (Homo sapiens)", "EC50 [µM]": 0.086}
{"molecule": "CCC[S@](=N)(=O)c1nc(N)c2[nH]c(=O)n(Cc3ccc(Cl)cc3)c2n1 (single isomer, unassigned) [Compound 34e-A]", "system.under.test": "human TLR7 (Homo sapiens)", "EC50 [µM]": 0.014}
{"molecule": "CC[S@@](=N)(=O)c1nc(N)c2[nH]c(=O)n(Cc3ccc(Cl)cc3)c2n1 (single isomer, unassigned) [Compound 41c-B]", "system.under.test": "human TLR7 (Homo sapiens)", "EC50 [µM]": 0.085}
{"molecule": "CC[S@](=N)(=O)c1nc(N)c2[nH]c(=O)n(Cc3ccc(C)cc3)c2n1 (single isomer, unassigned) [Compound 43e-B]", "system.under.test": "human TLR7 (Homo sapiens)", "EC50 [µM]": 0.035}
{"molecule": "CCS(=N)(=O)c1nc(N)c2[nH]c(=O)n(Cc3ccc(Cl)cc3)c2n1 (centres unmarked) [Compound 41c]", "system.under.test": "human TLR7 (Homo sapiens)", "EC50 [µM]": 0.053}

(A) CCC[S@](=N)(=O)c1nc(N)c2[nH]c(=O)n(Cc3ccc(Cl)cc3)c2n1 (single isomer, unassigned) [Compound 34e-B]
(B) CC[S@@](=N)(=O)c1nc(N)c2[nH]c(=O)n(Cc3ccc(C)cc3)c2n1 (single isomer, unassigned) [Compound 43e-A]
Would you let me know which has the greater EC50 value, A or B ? Write the label of whichever entry you select. B

====

test: Single dose PK study in male Wister-Han rats; assay type: in vivo; conditions: male, Wister-Han, rat, plasma, po, 5 mg/kg, 5 mg/kg oral dosing of active form, 1 h
property.label: concentration at 1 h (nM)

{"compound": "CC[S@@](=N)(=O)c1nc(N)c2[nH]c(=O)n(Cc3ccc(C)cc3)c2n1 (single isomer, unassigned) [Compound 43e-A]", "concentration at 1 h [nM]": 13}

(I) CCS(=O)(=O)c1nc(N)c2[nH]c(=O)n(Cc3ccc(C)cc3)c2n1 [Example S-3, reference compound]
(II) CCS(=O)(=O)c1nc(N)c2[nH]c(=O)n(Cc3ccc(Cl)cc3)c2n1 [Example S-2, reference compound]
Given I and given II , which shows the smaller recorded concentration at 1 h? Write the label of whichever entry you select. I
(I: 10.2 nM, II: 19.3 nM)

====

biological target: human TLR7 (Homo sapiens); assay: HEK293-Blue-hTLR-7 cells assay (SEAP reporter); assay type: cell-based; settings: EC50 of prodrug over EC50 of corresponding active form
property.label: Ratio (EC50(prodrug)/EC50(active form))

{"molecule": "CCC[S@](=N)(=O)c1nc(N)c2c(n1)n(Cc1ccc(C)cc1)c(=O)n2C(=O)N1CCCC1 [Example 37-A]", "property.label": "Ratio (EC50(prodrug)/EC50(active form))", "data.value": 1400}
{"molecule": "CCCN(C)C(=O)n1c(=O)n(Cc2ccc(Cl)cc2)c2nc([S@@](=N)(=O)CC)nc(N)c21 [Example 41-B]", "property.label": "Ratio (EC50(prodrug)/EC50(active form))", "data.value": 452.1}
{"molecule": "CCN(C)C(=O)n1c(=O)n(Cc2ccc(C)cc2)c2nc([S@@](=N)(=O)CC)nc(N)c21 (stereo in doubt) [Example 44-B]", "property.label": "Ratio (EC50(prodrug)/EC50(active form))", "data.value": 879.1}

(a) CCN(C)C(=O)n1c(=O)n(Cc2ccc(C)cc2)c2nc([S@@](=N)(=O)CC)nc(N)c21 [Example 44-A]
(b) CCCN(C)C(=O)n1c(=O)n(Cc2ccccc2)c2nc(S(=N)(=O)CCC)nc(N)c21 (single isomer, unassigned) [Example 1-B]
(c) CCCS(=N)(=O)c1nc(N)c2c(n1)n(Cc1ccccc1)c(=O)n2C(=O)N(C)CCC(=O)OC(C)(C)C (centres unmarked) [Example 16]
(d) CCCS(=N)(=O)c1nc(N)c2c(n1)n(Cc1ccccc1)c(=O)n2C(=O)N(C)CCN(C)C(=O)OC (centres unmarked) [Example 26]
(e) CCCCN(C)C(=O)OCCN(C)C(=O)n1c(=O)n(Cc2ccccc2)c2nc(S(=N)(=O)CCC)nc(N)c21 (centres unmarked) [Example 29]
# sort list by recorded Ratio (EC50(prodrug)/EC50(active form)), greatest to least To answer, write out the labels according to the requested order. a, e, c, b, d
(a: 1868.6, e: 750.8, c: 493.8, b: 314.0, d: 206.2)

(1) CCCN(CCOC)C(=O)n1c(=O)n(Cc2ccccc2)c2nc(S(=N)(=O)CCC)nc(N)c21 (centres unmarked) [Example 7]
(2) CCCS(=N)(=O)c1nc(N)c2c(n1)n(Cc1ccccc1)c(=O)n2C(=O)N(C)CCCOC (centres unmarked) [Example 12]
Would you let me know which has the greater Ratio (EC50(prodrug)/EC50(active form)) value, 1 or 2 ? Write the label of whichever entry you select. 2
(2: 675.4, 1: 306.2)

(1) CCCCN(C)C(=O)n1c(=O)n(Cc2ccc(Cl)cc2)c2nc([S@@](=N)(=O)CCC)nc(N)c21 [Example 34-A]
(2) CCC[S@](=N)(=O)c1nc(N)c2c(n1)n(Cc1ccc(C)cc1)c(=O)n2C(=O)N(C)CCOC (stereo in doubt) [Example 38-B]
Would you let me know which has the greater Ratio (EC50(prodrug)/EC50(active form)) value, 1 or 2 ? Write the label of whichever entry you select. 2
(2: 886.4, 1: 428.6)

(a) CCCS(=N)(=O)c1nc(N)c2c(n1)n(Cc1ccccc1)c(=O)n2C(=O)N(C)CCOC(=O)N(CC)CC (centres unmarked) [Example 32]
(b) CCCS(=N)(=O)c1nc(N)c2c(n1)n(Cc1ccccc1)c(=O)n2C(=O)N(CC)CCOC (centres unmarked) [Example 5]
Would you let me know which has the greater Ratio (EC50(prodrug)/EC50(active form)) value, a or b ? Write the label of whichever entry you select. b
(b: 630.8, a: 346.2)
